# Tested on: prostate
# Experimental Details: Intraprostatic infusion of S05A Peptides in rats: histological changes of cell death and prostate volume
# Assay type: in vivo, Male Sprague-Dawley rats
# Assay Setup: rat prostate volume, overall across 24 hours, 72 hours and 7 days; 1.0 mg/kg intraprostatic
Where no end group is shown, it is not given here.
Measurement Type: Calculated Mean Volume Overall (mm^3)
Report only the number, with the unit mm^3 understood.

The recorded Calculated Mean Volume Overall for VLSRIKLEIKRCL [S05A-6] is 404

The recorded Calculated Mean Volume Overall for IDQQVLSRIKLEI [S05A-7] is 234

The recorded Calculated Mean Volume Overall for IDQQVLSRI [S05A-2] is 198

The recorded Calculated Mean Volume Overall for RIKLEIK [S05A-5] is 350

The recorded Calculated Mean Volume Overall for VLSRIK [S05A-4] is 366

The recorded Calculated Mean Volume Overall for KLEIKRCL [S05A-3] is 382
